Task for the reader: assign each of the following molecules its reported CC50.
protocolDetails: Cytotoxicity against African green monkey Vero cells
Format: cell-based
recordedConditions: chlorocebus sabaeus, Vero cells

Q: Which CC50 is reported for this molecule? Cc1cnc(N)c2ncn([C@@H]3C=C(CO)[C@@H](O)[C@H]3O)c12
A: > 362 µM

Q: Which CC50 is reported for this molecule? Nc1nc(F)cc2c1ncn2[C@@H]1C=C(CCO)[C@@H](O)[C@H]1O
A: > 100 µM

Q: Which CC50 is reported for this molecule? Nc1nc(F)cc2c1ncn2[C@@H]1C[C@H](CO)[C@@H](O)[C@H]1O
A: > 355 µM
